Target: T1, porcine CD163 with deletion of SRCR domain 5 on porcine alveolar macrophages (porcine, UniProt Q2VL90 47-1115)
T1 construct: also called PAM CD163-d5; pPAMΔ5 domain
T1 sequence: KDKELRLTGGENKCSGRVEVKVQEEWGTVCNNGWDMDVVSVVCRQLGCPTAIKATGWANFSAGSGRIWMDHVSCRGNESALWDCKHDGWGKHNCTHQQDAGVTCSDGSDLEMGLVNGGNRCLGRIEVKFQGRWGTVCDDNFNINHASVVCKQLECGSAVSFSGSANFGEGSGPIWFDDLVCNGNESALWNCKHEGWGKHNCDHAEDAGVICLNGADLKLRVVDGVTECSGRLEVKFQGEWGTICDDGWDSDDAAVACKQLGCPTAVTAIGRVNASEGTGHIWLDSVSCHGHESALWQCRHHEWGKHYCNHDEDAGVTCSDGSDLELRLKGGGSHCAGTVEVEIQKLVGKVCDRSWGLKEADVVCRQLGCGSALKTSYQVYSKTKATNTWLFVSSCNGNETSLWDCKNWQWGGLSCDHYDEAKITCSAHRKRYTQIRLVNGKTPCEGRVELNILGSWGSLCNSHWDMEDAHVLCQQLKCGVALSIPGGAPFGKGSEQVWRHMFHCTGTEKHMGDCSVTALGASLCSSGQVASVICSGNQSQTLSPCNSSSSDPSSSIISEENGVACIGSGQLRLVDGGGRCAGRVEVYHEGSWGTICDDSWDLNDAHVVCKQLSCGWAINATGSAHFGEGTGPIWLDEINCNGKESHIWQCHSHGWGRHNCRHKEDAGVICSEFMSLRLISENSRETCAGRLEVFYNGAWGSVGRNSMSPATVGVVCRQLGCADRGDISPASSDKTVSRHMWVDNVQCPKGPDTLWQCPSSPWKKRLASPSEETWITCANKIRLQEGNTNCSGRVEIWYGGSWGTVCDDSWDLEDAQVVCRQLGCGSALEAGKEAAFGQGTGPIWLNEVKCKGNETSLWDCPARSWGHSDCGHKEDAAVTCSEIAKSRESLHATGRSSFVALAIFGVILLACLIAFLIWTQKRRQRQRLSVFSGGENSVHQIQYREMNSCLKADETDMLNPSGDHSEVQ
Experiment: flow cytometry, PAM CD163-d5
List of MFI values.
Respond numerically; units are MFI and should not be typed.

Example cases with answers are listed next.
Which MFI value is on record for VHH 018 (3E01) (VHH, Llama single domain antibody; also called 49(#18); VHCDR3 49(#18); not shown: tags: c-myc tag in periplasmic extract (ELISA, FACS); FLAG and His tags in purified VHH (SPR, infection assays)) VHH: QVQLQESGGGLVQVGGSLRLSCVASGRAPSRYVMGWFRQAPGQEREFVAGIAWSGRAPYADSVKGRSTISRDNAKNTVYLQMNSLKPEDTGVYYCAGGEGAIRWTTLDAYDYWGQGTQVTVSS ?
1400

Bench note: what MFI did VHH 019 (3E11) (VHH, Llama single domain antibody; also called 47(#19); VHCDR3 47(#19); not shown: tags: c-myc tag in periplasmic extract (ELISA, FACS); FLAG and His tags in purified VHH (SPR, infection assays)) VHH: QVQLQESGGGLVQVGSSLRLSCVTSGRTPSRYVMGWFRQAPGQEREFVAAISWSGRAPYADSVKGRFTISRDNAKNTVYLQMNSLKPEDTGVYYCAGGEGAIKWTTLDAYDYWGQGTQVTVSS show?
1530

Param item = VHH 017 (3D03) (VHH, Llama single domain antibody; also called 29(#17); VHCDR3 29(#17); not shown: tags: c-myc tag in periplasmic extract (ELISA, FACS); FLAG and His tags in purified VHH (SPR, infection assays)) VHH: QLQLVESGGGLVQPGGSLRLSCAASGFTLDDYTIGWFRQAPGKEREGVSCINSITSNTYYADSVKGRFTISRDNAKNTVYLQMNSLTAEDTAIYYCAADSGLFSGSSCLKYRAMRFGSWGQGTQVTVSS ; retrieve measured MFI.
1450

# lookup: MFI of VHH 012 (2C07) (VHH, Llama single domain antibody; also called 41(#12); VHCDR3 41(#12); not shown: tags: c-myc tag in periplasmic extract (ELISA, FACS); FLAG and His tags in purified VHH (SPR, infection assays)) VHH: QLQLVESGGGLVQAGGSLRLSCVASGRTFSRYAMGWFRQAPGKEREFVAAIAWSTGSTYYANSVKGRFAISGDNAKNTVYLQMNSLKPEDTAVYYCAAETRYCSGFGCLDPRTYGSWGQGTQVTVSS
1580

What does the data say about its MFI? Entry: VHH 011 (2B06) (VHH, Llama single domain antibody; also called 57(#11); VHCDR3 57(#11); not shown: tags: c-myc tag in periplasmic extract (ELISA, FACS); FLAG and His tags in purified VHH (SPR, infection assays)) VHH: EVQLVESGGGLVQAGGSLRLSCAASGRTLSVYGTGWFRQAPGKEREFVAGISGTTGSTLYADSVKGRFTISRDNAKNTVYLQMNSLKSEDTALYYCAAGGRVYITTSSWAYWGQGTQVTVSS
1610

Note: attention shifts to another entry.
Query (binder): VHH 001 (1B02) (VHH, Llama single domain antibody; also called 144(#1); VHCDR3 144(#1); not shown: tags: c-myc tag in periplasmic extract (ELISA, FACS); FLAG and His tags in purified VHH (SPR, infection assays)) VHH: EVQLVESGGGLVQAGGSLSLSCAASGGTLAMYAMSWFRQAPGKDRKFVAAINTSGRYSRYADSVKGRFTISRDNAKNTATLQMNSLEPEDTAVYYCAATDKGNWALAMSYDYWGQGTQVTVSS ; field requested: MFI
1430
